target: recombinant human DPP7 (Homo sapiens, UniProt Q9UHL4); construct: purchased R&D Systems; assay: DPP7 inhibition, fluorogenic substrate Lys-Pro-AMC; type: biochemical; conditions: recombinant human DPP7
pIC50: −log10 of the molar value.
valueType: pIC50

CN(Cc1ccccc1)C(=O)c1ccc(N[C@H]2CCN(CC(=O)N3C[C@@H](F)C[C@H]3C#N)C2)c2cccnc12 : 6.48
Cc1cc(N[C@@H]2CCN(CC(=O)N3C[C@@H](F)C[C@H]3C#N)C2)cc2cccnc12 : 6.41
N#C[C@@H]1C[C@H](F)CN1C(=O)CN1CC[C@@H](Nc2ccnc3ccccc23)C1 : 6.52
N#C[C@@H]1C[C@H](F)CN1C(=O)CN1CC[C@@H](Nc2cnc3ncccc3c2)C1 : 5.55
COc1cnc2cccc(N[C@H]3CCN(CC(=O)N4C[C@@H](F)C[C@H]4C#N)C3)c2c1 : 5.85

(I) N#C[C@@H]1C[C@H](F)CN1C(=O)CN1CC[C@@H](Nc2ccc(F)c3ncccc23)C1
(II) COc1cc(N[C@H]2CCN(CC(=O)N3C[C@@H](F)C[C@H]3C#N)C2)c2cccnc2c1
Asked: Between I and II , which one shows the smaller pIC50 number? Refer to your chosen item by its label in the answer.
Given back: I

Data origin, for the record: patent US11655235B2
